Answer each item with its documented MCH-5 k3/Ki.
Assayed system: MCH-5 (Homo sapiens)
Sequence (Q14790 217-374 limits assumed, species assumed): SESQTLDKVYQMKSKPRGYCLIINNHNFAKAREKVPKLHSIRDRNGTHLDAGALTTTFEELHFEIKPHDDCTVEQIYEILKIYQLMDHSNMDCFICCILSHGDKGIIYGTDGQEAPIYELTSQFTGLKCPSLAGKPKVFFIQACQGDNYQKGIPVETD
Sequence (Q14790 385-479 limits assumed, species assumed): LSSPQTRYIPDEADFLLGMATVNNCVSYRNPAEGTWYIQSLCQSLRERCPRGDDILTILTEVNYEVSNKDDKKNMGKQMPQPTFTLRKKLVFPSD
Procedure summary: Dissociation constant Ki and irreversible rate constant k3 for irreversible inhibitors (Mch5)
Type: biochemical
Measurement context: continuous assay 60 min, reaction initiated by adding enzyme to substrate-inhibitor mixture
Where a SMILES comes first, the peptide text is derived from it. The star is where a group is joined. Cbz = O=C(OCc1ccccc1)*; CH2F = FC*

C[C@H](NC(=O)C(=O)Nc1ccccc1C(C)(C)C)C(=O)N[C@@H](CC(=O)O)C(=O)COC(=O)c1c(Cl)cccc1Cl [Example 37] has a reported MCH-5 k3/Ki of 39,100 moles^−1 seconds^−1

"C[C@H](NC(=O)C(=O)Nc1ccccc1I)C(=O)N[C@@H](CC(=O)O)C(=O)COP(=O)(c1ccccc1)c1ccccc1" has a reported MCH-5 k3/Ki of 46,300 moles^−1 seconds^−1

"C[C@H](NC(=O)C(=O)Nc1cc(C(F)(F)F)ccc1N1CCOCC1)C(=O)N[C@@H](CC(=O)O)C(=O)COP(=O)(c1ccccc1)c1ccccc1" has a reported MCH-5 k3/Ki of 441,000 moles^−1 seconds^−1

CC(C)[C@H](NC(=O)C(=O)NC1CCCc2ccccc21)C(=O)N[C@@H](CC(=O)O)C(=O)COc1c(F)c(F)cc(F)c1F (stereo partly drawn) has a reported MCH-5 k3/Ki of 456,000 moles^−1 seconds^−1

C[C@H](NC(=O)C(=O)Nc1ccccc1I)C(=O)N[C@@H](CC(=O)O)C(=O)COC(=O)c1c(Cl)cccc1Cl [Example 38] has a reported MCH-5 k3/Ki of 337,000 moles^−1 seconds^−1

CC(NC(=O)C(NC(=O)OCc1ccccc1)C(C)C)C(=O)NC(CC(=O)O)C(=O)CF (stereo not drawn) [refer., Cbz-ValAlaAsp-CH2F, reference compound] (Cbz-Val-Ala-Asp-CH2F; configuration not given here) has a reported MCH-5 k3/Ki of 83,300 moles^−1 seconds^−1

"C[C@H](NC(=O)C(=O)Nc1ccccc1-c1ccccc1)C(=O)N[C@@H](CC(=O)O)C(=O)COc1ccccc1F" has a reported MCH-5 k3/Ki of 37,800 moles^−1 seconds^−1

"CC(C)[C@H](NC(=O)C(=O)Nc1ccccc1C(F)(F)F)C(=O)N[C@@H](CC(=O)O)C(=O)COc1c(F)c(F)cc(F)c1F" has a reported MCH-5 k3/Ki of 41,000 moles^−1 seconds^−1

"C[C@H](NC(=O)C(=O)NCc1ccccc1)C(=O)N[C@@H](CC(=O)O)C(=O)COc1c(F)c(F)cc(F)c1F" has a reported MCH-5 k3/Ki of 23,100 moles^−1 seconds^−1

C[C@H](NC(=O)C(=O)Nc1cccc2c1CCCC2)C(=O)N[C@@H](CC(=O)O)C(=O)COP(=O)(c1ccccc1)c1ccccc1 [Example 61] has a reported MCH-5 k3/Ki of 71,800 moles^−1 seconds^−1

C[C@H](NC(=O)C(=O)Nc1ccccc1C(C)(C)C)C(=O)N[C@@H](CC(=O)O)C(=O)COP(=O)(c1ccccc1)c1ccccc1 [Example 47] has a reported MCH-5 k3/Ki of 589,000 moles^−1 seconds^−1

C[C@H](NC(=O)C(=O)Nc1ccccc1Cl)C(=O)N[C@@H](CC(=O)O)C(=O)COC(=O)c1c(Cl)cccc1Cl [Example 58] has a reported MCH-5 k3/Ki of 396,000 moles^−1 seconds^−1

The reported measurements were obtained from patent US7183260B2.
